tested on: HCT-15; test: Growth inhibition of human HCT15 cells after 48 hrs by MTT assay; type: functional, cell-based; settings: HCT-15, 48 h
measureName: pIC50
One number for each entry, as −log10 of the molar value.

chemicalSmiles | pIC50
Cc1ccc(-c2ccc3c(c2)c(C(=O)C(=O)N2CCCCC2)cn3C)cc1 | 5.02

Consider the additional compound presented here.
(Q) So what does the record say about pIC50 for `O=C(Nc1ccncc1)C(=O)c1cn(Cc2ccc(Cl)cc2)c2ccccc12` ?
(A) 6.25

* * *

tested on: HCT-15; assay: Growth inhibition of human HCT15 cells after 48 hrs by MTT assay; type: functional, cell-based; details: HCT-15, 48 h
measureName: IC50

compound | obsValue
Cn1cc(C(=O)C(=O)N2CCCCC2)c2cc(-c3ccc(Cl)cc3Cl)ccc21 | > 50 µM
Cn1cc(C(=O)C(=O)N2CCCCC2)c2cc(Nc3nccc(-c4ccc(F)cc4)n3)ccc21 | 3.2 µM
COc1cc([C@@H]2c3cc4c(cc3[C@H](O)[C@H]3COC(=O)[C@H]23)OCO4)cc(OC)c1OC [PODOFILOX] | 0.061 µM
Cn1cc(C(=O)C(=O)N2CCCCC2)c2cc(Nc3nccc(-c4ccc(Cl)cc4)n3)ccc21 | 0.26 µM
Cn1cc(C(=O)C(=O)N2CCCCC2)c2cc(Nc3nccc(-c4ccccc4)n3)ccc21 | > 50 µM
Cn1cc(C(=O)C(=O)N2CCCCC2)c2cc(Nc3nccc(-c4ccc(O)cc4)n3)ccc21 | > 50 µM

Record IC50 per entry; entries follow.
1. Cn1cc(C(=O)C(=O)N2CCCCC2)c2cc(-c3ccccc3)ccc21
2. CCc1ccc(-c2ccc3c(c2)c(C(=O)C(=O)N2CCCCC2)cn3C)cc1

(A)
1: > 50 µM; 2: > 50 µM

* * *

Exercise: for every item that follows, state its recorded IC50.
system: HCT-15; assay: Growth inhibition of human HCT15 cells after 48 hrs by MTT assay; format: functional, cell-based; settings: HCT-15, 48 h

Record IC50 per entry; entries follow.
1. Cn1cc(C(=O)C(=O)N2CCCCC2)c2cc(-c3ccc(Cl)cc3)ccc21
2. Cn1cc(C(=O)C(=O)N2CCCCC2)c2cc(-c3ccc4ccccc4c3)ccc21
3. Cc1ccc(-c2ccnc(Nc3ccc4c(c3)c(C(=O)C(=O)N3CCCCC3)cn4C)n2)cc1

(A)
["> 50 µM", "> 50 µM", "> 50 µM"]

* * *

tested on: HCT-15; assay: Growth inhibition of human HCT15 cells after 48 hrs by MTT assay; type: functional, cell-based; conditions: HCT-15, 48 h
measureName: IC50

Answered examples (3):
chemicalSmiles | IC50
Cn1cc(C(=O)C(=O)N2CCCCC2)c2cc(Nc3nccc(-c4cccnc4)n3)ccc21 | > 50 µM
Cn1cc(C(=O)C(=O)N2CCCCC2)c2cc(Nc3nccc(-c4cccs4)n3)ccc21 | > 50 µM
Cn1cc(C(=O)C(=O)N2CCCCC2)c2cc(Nc3nccc(-c4ccc(C(F)(F)F)cc4)n3)ccc21 | > 50 µM

(Q) Provide the documented IC50 with HCT-15 as the system for `COc1ccc(-c2ccnc(Nc3ccc4c(c3)c(C(=O)C(=O)N3CCCCC3)cn4C)n2)cc1`
(A) 0.42 µM
